- assay procedure: NCI Yeast Anticancer Drug Screen. Data for the cln2 rad14 strain (AID 165);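 also: 0% = growth equal to vehicle treated cultures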
- run conditions: S. cerevisiae cln2 rad14 strain, at 50.0 µM (retest, dose inferred, filed as 5.0)
This is part of a sample that, as a whole, favours compounds with a hit. Of some 79,000 tested, about 15% had one in any assay. Active and inactive are the calls of the source. Rule as the data show it: active = growth inhibition above about 70%; inactive = the rest.
Select the correct class. Options are class 1 for active, class 0 for inactive and nothing else.

Consider the following illustrative entries.
COc1c(I)cc(I)c(O)c1I; class 0
OCCC(CCN1CCOCC1)(c1ccccc1)C1(O)CCCC1 (configuration not stated); class 0
CCN(CC)C(C)(C)C(=O)/C=C/c1ccc(Cl)c(Cl)c1; class 1
CCCCCCCCCCCC(=O)N(CCOC(=O)c1ccco1)CCOC(=O)c1ccco1; class 1
S=C(NCc1ccccc1)N/N=C/c1ccccn1; class 1

Task: Hi team, can someone confirm the assay call for CCCCCCC(OCCC)OCCC ?
Result: class 0

Task: For N=C(N)c1cccc(-c2ccc(-c3ccccc3)o2)c1 , what call appears in the results of this test?
Result: class 0

----------
- assay procedure: NCI Yeast Anticancer Drug Screen. Data for the mec2-1 strain (AID 157)
- run conditions: S. cerevisiae mec2-1 strain, at 5.0 µM (retest, dose inferred, filed as 0.5), active compounds read high
The panel holds about 79,000 compounds, 15% with a hit somewhere; the sample as a whole holds those more often.
Everything with growth inhibition lower than 30% is n; everything else, including exactly 30%, is y.

NC(=O)C1CCN(N=Nc2c(-c3ccccc3)n[nH]c2-c2ccccc2)CC1; y
CNC(=O)NN(C)C=O; n
Cc1cnc(Sc2c([N+](=O)[O-])ncn2C)nc1; n
N#Cc1ccc(OC(=O)Nc2c(Cl)cccc2Cl)cc1; y
O=C1C=CC(=O)N1c1ccc(Cl)cc1Br; y
CC1=NN(C(=O)c2ccncc2)C(=O)C1N=Nc1ccc(C)c([N+](=O)[O-])c1 (stereo not drawn); n

Task: Evaluate CC(C)OC(=O)c1ccccc1C(=C1C=C(Br)C(=O)C(Br)=C1)c1cc(Br)c(O)c(Br)c1 : growth inhibition at minimum 30%?
Result: y

Task: Can Cc1ccc(C(=O)C(F)(F)F)cc1 be said to have growth inhibition at or above 30%?
Result: n

Task: Can COc1ccc(/C=C2\CN(C)C/C(=C\c3ccc(OC)c(OC)c3OC)C2=O)c(OC)c1OC be said to have growth inhibition at or above 30%?
Result: n

Task: Reported growth inhibition at or above 30%? Clc1ccc(OCCC(Cn2ccnc2)c2ccc(Cl)cc2Cl)c(Cl)c1 (stereo not drawn)
Result: y

Task: Can CCCCC1C(=S)N(c2ccccc2)N(c2ccccc2)C1=S be said to have growth inhibition at or above 30%?
Result: n

Task: Form field: growth inhibition at least 30%? Entry: COc1ccc(-c2c3ccccc3[n+](-c3ccccc3)c3ccccc23)cc1
Result: y

Task: Quick check: does O=[N+]([O-])c1cc(CNCCO)c(O)c2ncccc12 have growth inhibition greater than or equal to 30%?
Result: y

Task: Does the reported growth inhibition for Cc1cc(C)c(O)c(Cc2cc(Cl)cc(Cc3cc(C)cc(C)c3O)c2O)c1 fall at or above the 30% mark?
Result: n

Task: Does CCNC(=O)COc1ccc(Cl)cc1Cl have a reported growth inhibition of at least 30%?
Result: n

Task: growth inhibition >= 30% for O=[N+]([O-])c1ccc2c(c1)[nH]c1ccccc12 ?
Result: n

Task: Is growth inhibition at least 30%? Consider CCN(CC)C(=S)N/N=C(/c1ccccc1)c1ccccn1
Result: y

Task: State whether the measured growth inhibition reaches 30%, counting equality as reaching it, for CNC(=O)OCC1=CC(=O)C(OC)=C(OC)C1=O
Result: n

Task: Record COc1cccc2c1C(=O)c1c(O)c3c(c(O)c1C2=O)C[C@@](O)(C(C)=O)C[C@@H]3OC1CC(N(CCO)Cc2ccccc2)C(O)C(C)O1 (stereo partly drawn) ; criterion: growth inhibition no lower than 30%. Met?
Result: y

Task: Item Nc1cc(F)c(F)cc1Sc1cc(F)c(F)cc1N with growth inhibition of 30% or above?
Result: y

Task: Dear colleague, could you confirm whether S=c1sc2c(s1)SCCOCCOCCOCCS2 has growth inhibition at or above 30%?
Result: n

Task: Hi, just wondering whether O=c1c2cc3c(cc2c2cccc4c2n1CCC4)OCO3 shows growth inhibition of 30% or higher.
Result: n

Task: In plain terms: is recorded growth inhibition at least 30% for O=C(NN1C(=O)C(Cl)C1c1ccc(O)cc1)c1ccccc1O (stereo not drawn) ?
Result: n

----------
- assay procedure: NCI Yeast Anticancer Drug Screen. Data for the sgs1 mgt1 strain (AID 161);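 also: 0% = growth of cultures given vehicle only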
- run conditions: S. cerevisiae sgs1 mgt1 strain, at 50.0 µM (retest, dose inferred, filed as 5.0), active compounds read high
Compounds without any hit were thinned out: in the full panel of roughly 79,000, 15% have a hit.
property measured: growth inhibition (%)
State the answer as a number, implicitly in %.

These solved cases illustrate the format of a correct answer.
COC(=O)c1cccc2cccc(C(=O)Nc3ccc(C)cc3C)c12; 99
O=C(c1ccc(Cl)cc1)c1ccc(OCCCOc2ccc(C(=O)c3ccc(Cl)cc3)cc2)cc1; -4
CN(C)CCC(=O)[C@@]1(O)CC[C@H]2[C@@H]3CC=C4C[C@@H](O)CC[C@]4(C)[C@H]3CC[C@@]21C; 71
CN(Cc1cc(Cl)cc(Cl)c1O)Cc1c(O)ccc2ccccc12; 99
O=C(Nc1ccc(Br)cc1)Oc1ccccc1C(=O)Nc1ccccc1; 98

// growth inhibition value for Cc1ccc(N2CCN(c3c(N)cncc3Br)CC2)cc1 : 18

----------
- assay procedure: NCI Yeast Anticancer Drug Screen. Data for the mlh1 rad18 strain (AID 175)
- run conditions: S. cerevisiae mlh1 rad18 strain growth inhibition; at 50.0 µM (retest, dose inferred, filed as 5.0)
About 79,000 compounds went through this panel and 15% of them were active in at least one assay; those are over-represented in the sample as a whole. Calls of active or inactive are those of the source. Rule as the data show it: active = growth inhibition above about 70%; inactive = the rest.
The reply should be one of these categories: active, inactive

[N-]=[N+]=CC(=O)C1(c2ccccc2)OC1c1ccccc1 (stereo unspecified); inactive
O=C(CC1C=Cc2ccccc2N1C(=O)c1ccccc1)c1ccccc1 (stereo unspecified); active
CCN1CCC(O)(/C=C/c2ccccc2C)C(C(=O)/C=C/c2ccccc2C)C1 (stereo unspecified); active
CN(C)c1ncnc2c1ncn2C; active
Nc1nc(-c2cc3cc(Cl)ccc3o2)cs1; active
Cn1c(=S)c2[nH]c(SCCN3CCCC3)nc2n(C)c1=O; active
Clc1ccc(Cl)c(SCCCN2CCNCC2)c1; inactive
Cc1cccc(N2CCN(CC(O)COc3ccc4ccccc4c3)CC2)c1 (stereo unspecified); inactive

Task: Test call, this compound: CCOC(=O)CCC(=O)Oc1ccc2c(c1OC(=O)CCC(=O)OCC)C(=O)c1ccccc1C2=O
Result: active

Task: In this assay, the call recorded for O=C(O)CNc1ccc2c(c1)Cc1cc(Br)ccc1-2 was what?
Result: active

Task: # fetch the recorded call for COc1ccc(NC(=O)CC(=O)n2nc(-c3ccccc3)c(N=Nc3ccc(C)cc3)c2-c2ccccc2)cc1 here
Result: inactive

----------
- assay procedure: NCI Yeast Anticancer Drug Screen. Data for the mlh1 rad18 strain (AID 175)
- run conditions: S. cerevisiae mlh1 rad18 strain growth inhibition; at 50.0 µM; active compounds read high
This is part of a sample that, as a whole, favours compounds with a hit. Of some 79,000 tested, about 15% had one in any assay.
Lab note: compare growth inhibition against 60%. Equal or greater, write Y. Smaller, write N.

COC(=O)c1ccc(SCCC(=O)CCl)cc1; Y

Task: Determine whether measured growth inhibition meets or exceeds 60% for CCCCCCCCN/N=C(/C)CCCCCO
Result: N

Task: Test whether the molecule CC(=O)OC1COC(n2nnc(C#N)c2C#N)C(OC(C)=O)C1OC(C)=O (stereo not given) records growth inhibition of 60% or higher.
Result: Y

Task: Please check the record CCOc1ccccc1C(=O)Oc1cccc(C)c1 and state if its growth inhibition is at or above 60%.
Result: N

Task: Evaluate CCOC(=O)/C(=C\c1ccc(Cl)cc1)C(C)=O : growth inhibition at minimum 60%?
Result: Y

Task: In plain terms: is recorded growth inhibition at least 60% for C=CCCCCO/N=C/c1c2c(O)c3c(O)c(C)c4c(c3c1O)C(=O)C(C)(O/C=C/C(OC)C(C)C(OC(C)=O)C(C)C(O)C(C)C(O)C(C)/C=C/C=C(\C)C(=O)N2)O4 (stereo not given) ?
Result: Y

Task: Assess whether reported growth inhibition for COc1ccc(C2=C(Cl)C(=O)N(c3ccc(Cl)cc3)C(=O)C2(Cl)Cl)cc1 sits at 60% or higher.
Result: Y

----------
Below: a set of entries, each annotated with reported growth inhibition.
- assay procedure: NCI Yeast Anticancer Drug Screen. Data for the mec2-1 strain (AID 157)
- run conditions: S. cerevisiae mec2-1 strain, at 5.0 µM (retest, dose inferred, filed as 0.5), active compounds read high
Compounds without any hit were thinned out: in the full panel of roughly 79,000, 15% have a hit.
Number only, in %; omit the unit.

Short answer for Sc1ccccc1C1N(Cc2ccc(Cl)cc2)CCCN1Cc1ccc(Cl)cc1 : growth inhibition was 100

Entry Cc1cc(C)c(S(=O)(=O)n2ccnc2)c(C)c1 , growth inhibition reported as 0

# growth inhibition of C[Si](C)(C)CC(c1ccccc1)C(O)c1ccccc1 (configuration not stated) = -4
